# System: SH-SY5Y cells
# protocol-notes: sAPPβ release assay
# assay-setup: read-out: IC50 Cell (sAPPβ release); SH-SY5Y cells, compounds incubated 16-17 h
pIC50: −log10 of the molar value.
Decision: pIC50 >= 7 yields Fulfilled, all other cases yield Not fulfilled.

[
  {
    "compound": "[2H]C1([2H])OC(N)=N[C@]12c1cc(-c3cncc(Cl)c3)ccc1C[C@]21CC[C@@H](OC)[C@H](C)C1",
    "system": "SH-SY5Y cells",
    "assigned-class": "Fulfilled"
  },
  {
    "compound": "CC1(C2CCOCC2)Cc2ccc(-c3cncnc3)cc2C12COC(N)=N2 (centres unmarked) [Compound 95]",
    "system": "SH-SY5Y cells",
    "assigned-class": "Not fulfilled"
  },
  {
    "compound": "CC1(C2CCOCC2)Cc2ccc(-c3cncnc3)cc2C12COC(N)=N2 (centres unmarked) [Compound 102]",
    "system": "SH-SY5Y cells",
    "assigned-class": "Fulfilled"
  },
  {
    "compound": "[2H]C1([2H])OC(N)=NC12c1cc(-c3cc(Cl)cc(C#N)c3)ccc1C[C@@]21C[C@@H](C)[C@H](OC)[C@@H](C)C1 (some centres unmarked)",
    "system": "SH-SY5Y cells",
    "assigned-class": "Fulfilled"
  },
  {
    "compound": "COC1CCC2(CC1)Cc1ccc(-c3cc(Cl)cc(C#N)c3)cc1C21COC(N)=N1 (centres unmarked)",
    "system": "SH-SY5Y cells",
    "assigned-class": "Fulfilled"
  }
]

====

# system: Human BACE1 (Homo sapiens, UniProt P56817)
# Construct: the soluble part of the human β-Secretase1 (AA1-AA460) was cloned using the BACE1(1-460)-(AVT)-Fc-pGEN-IRES-neo mammalian expression vector; AVT linker (C); made in house
# Sequence (P56817 22-460): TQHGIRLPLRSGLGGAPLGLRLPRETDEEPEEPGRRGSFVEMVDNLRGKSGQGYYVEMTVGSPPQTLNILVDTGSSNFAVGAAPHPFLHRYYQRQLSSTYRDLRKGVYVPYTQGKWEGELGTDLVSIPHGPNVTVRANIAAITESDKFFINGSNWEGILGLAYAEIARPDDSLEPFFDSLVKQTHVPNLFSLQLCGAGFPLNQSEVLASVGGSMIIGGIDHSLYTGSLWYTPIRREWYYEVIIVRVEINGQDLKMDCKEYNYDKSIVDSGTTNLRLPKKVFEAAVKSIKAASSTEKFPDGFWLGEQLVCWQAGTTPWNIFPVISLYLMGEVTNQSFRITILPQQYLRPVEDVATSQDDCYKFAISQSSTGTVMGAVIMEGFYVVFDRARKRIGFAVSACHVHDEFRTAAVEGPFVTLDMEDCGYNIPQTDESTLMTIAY
# protocol-notes: Diluted TR-FRET assay
# Type: biochemical
# assay-setup: 50 times less enzyme, 6.5 h reaction time at r.t.; read-out: IC50 BACE1 (dil. TR-FRET)
Counter-ions that a name gives are not always drawn.
Entries whose IC50 is below 0.1 µM take y; entries at or above 0.1 µM take n.

[
  {
    "compound": "[2H]C([2H])([2H])O[C@@H]1CC[C@]2(Cc3ccc(-c4cnccn4)cc3[C@]23N=C(N)OC3([2H])[2H])C[C@H]1C",
    "system": "Human BACE1 (Homo sapiens, UniProt P56817)",
    "assigned-class": "n"
  },
  {
    "compound": "CO[C@H]1CC[C@]2(CC1)Cc1ccc(CCC(C)C)cc1C21COC(N)=N1 (some centres unmarked)",
    "system": "Human BACE1 (Homo sapiens, UniProt P56817)",
    "assigned-class": "n"
  },
  {
    "compound": "[2H]C([2H])([2H])O[C@H]1CC[C@@]2(Cc3ccc(-c4cc(Cl)cnc4F)cc3[C@]23N=C(N)OC3([2H])[2H])C[C@@H]1C",
    "system": "Human BACE1 (Homo sapiens, UniProt P56817)",
    "assigned-class": "y"
  },
  {
    "compound": "[2H]C1([2H])OC(N)=N[C@]12c1cc(-c3cncc(C)c3)ccc1C[C@]21CC[C@@H](OC)[C@H](C)C1",
    "system": "Human BACE1 (Homo sapiens, UniProt P56817)",
    "assigned-class": "n"
  },
  {
    "compound": "[2H]C1([2H])OC(N)=N[C@]12c1cc(-c3cncc(C#CC)c3)ccc1C[C@@]21CC[C@H](OC)[C@@H](C)C1",
    "system": "Human BACE1 (Homo sapiens, UniProt P56817)",
    "assigned-class": "y"
  },
  {
    "compound": "[2H]C1([2H])OC(N)=NC12c1cc(OCCC(F)(F)F)ccc1C[C@]21CC[C@@H](OC)CC1 (some centres unmarked)",
    "system": "Human BACE1 (Homo sapiens, UniProt P56817)",
    "assigned-class": "n"
  },
  {
    "compound": "CO[C@H]1CC[C@]2(CC1)Cc1ccc(-c3cncnc3)cc1C21COC(N)=N1 (some centres unmarked)",
    "system": "Human BACE1 (Homo sapiens, UniProt P56817)",
    "assigned-class": "n"
  },
  {
    "compound": "[2H]C1([2H])OC(N)=NC12c1cc(C([2H])([2H])C([2H])([2H])C(C)C)ccc1C[C@@]21C[C@@H](C)[C@H](OC)[C@@H](C)C1 (some centres unmarked)",
    "system": "Human BACE1 (Homo sapiens, UniProt P56817)",
    "assigned-class": "y"
  },
  {
    "compound": "[2H]C1([2H])OC(N)=N[C@]12c1cc(-c3cncc(C4CC4)c3)ccc1C[C@]21CC[C@@H](OC)[C@H](C)C1 [Compound 1, formate Salt]",
    "system": "Human BACE1 (Homo sapiens, UniProt P56817)",
    "assigned-class": "n"
  },
  {
    "compound": "C[C@@H]1CC(C2Cc3ccc(-c4cncnc4)cc3C23COC(N)=N3)C[C@H](C)O1 (some centres unmarked)",
    "system": "Human BACE1 (Homo sapiens, UniProt P56817)",
    "assigned-class": "n"
  },
  {
    "compound": "CC#Cc1cncc(-c2ccc3c(c2)C2(COC(N)=N2)[C@]2(CC[C@H](OC)CC2)C3)c1 (some centres unmarked)",
    "system": "Human BACE1 (Homo sapiens, UniProt P56817)",
    "assigned-class": "y"
  },
  {
    "compound": "COc1cc(C#N)cc(-c2ccc3c(c2)C2(COC(N)=N2)C(N2CCOCC2)C3)c1 (centres unmarked)",
    "system": "Human BACE1 (Homo sapiens, UniProt P56817)",
    "assigned-class": "n"
  },
  {
    "compound": "[2H]C1([2H])OC(N)=N[C@]12c1cc(-c3cncc(Cl)c3)ccc1C[C@]21CC[C@@H](OC)[C@H](C)C1 [Compound 7]",
    "system": "Human BACE1 (Homo sapiens, UniProt P56817)",
    "assigned-class": "y"
  },
  {
    "compound": "[2H]C1([2H])CC2(N=C(N)O1)c1cc(-c3cncc(C#N)c3)ccc1C[C@]21CC[C@@H](OC)CC1 (some centres unmarked)",
    "system": "Human BACE1 (Homo sapiens, UniProt P56817)",
    "assigned-class": "y"
  }
]

====

# Tested on: SH-SY5Y cells
# protocol-notes: sAPPβ release assay
# assay-setup: Homo sapiens, SH-SY5Y, read-out: IC50 Cell (sAPPβ release, nM), SH-SY5Y cells, compounds incubated 16-17 h
value-kind: IC50 (nM)

[
  {
    "compound": "COc1cc(C#N)cc(-c2ccc3c(c2)C2(COC(N)=N2)C(C)(C2CCOCC2)C3)c1 (centres unmarked) [Compound 101]",
    "value-kind": "IC50",
    "comparison-operator": "=",
    "test-result": 75.6
  },
  {
    "compound": "[2H]C1([2H])OC(N)=N[C@]12c1cc(-c3cncc(C)c3)ccc1C[C@]21CC[C@@H](OC)[C@H](C)C1 [Compound 20]",
    "value-kind": "IC50",
    "comparison-operator": "=",
    "test-result": 2.9
  },
  {
    "compound": "[2H]C1([2H])OC(N)=NC12c1cc(CCC(C)C)ccc1C[C@@]21C[C@@H](C)[C@H](OC)[C@@H](C)C1 (some centres unmarked) [Compound 43]",
    "value-kind": "IC50",
    "comparison-operator": "=",
    "test-result": 7.5
  },
  {
    "compound": "[2H]C1([2H])OC(N)=N[C@]12c1cc(-c3cnccn3)ccc1C[C@]21CC[C@@H](OC)[C@H](C)C1 [Compound 69]",
    "value-kind": "IC50",
    "comparison-operator": "=",
    "test-result": 17
  },
  {
    "compound": "[2H]C1([2H])OC(N)=NC12c1cc(/C=N/OC3CCC3)ccc1C[C@]21CC[C@@H](OC)CC1 (some centres unmarked) [Compound 61]",
    "value-kind": "IC50",
    "comparison-operator": "=",
    "test-result": 207
  },
  {
    "compound": "[2H]C1([2H])OC(N)=N[C@]12c1cc(-c3cncc(C#CC)c3)ccc1C[C@@]21CC[C@H](OC)[C@@H](C)C1 [Compound 3]",
    "value-kind": "IC50",
    "comparison-operator": "=",
    "test-result": 0.2
  },
  {
    "compound": "[2H]C1([2H])OC(N)=N[C@]12c1cc(-c3cncc(C#CC)c3)ccc1C[C@]21CC[C@@H](OC)[C@H](C)C1 [Compound 2]",
    "value-kind": "IC50",
    "comparison-operator": "=",
    "test-result": 0.27
  },
  {
    "compound": "[2H]C1([2H])OC(N)=N[C@]12c1cc(-c3ccccn3)ccc1C[C@@]21CC[C@H](OC)[C@@H](C)C1 [Compound 114]",
    "value-kind": "IC50",
    "comparison-operator": "=",
    "test-result": 8
  },
  {
    "compound": "[2H]C1([2H])OC(N)=N[C@]12c1cc(-c3cncc(F)c3)ccc1C[C@]21CC[C@@H](OC)[C@H](C)C1 [Compound 25]",
    "value-kind": "IC50",
    "comparison-operator": "=",
    "test-result": 1.8
  },
  {
    "compound": "[2H]C1([2H])OC(N)=N[C@]12c1cc(-c3cncnc3C)ccc1C[C@@]21CC[C@H](OC)[C@@H](C)C1 [Compound 70]",
    "value-kind": "IC50",
    "comparison-operator": "=",
    "test-result": 26.6
  },
  {
    "compound": "[2H]C1([2H])CC2(N=C(N)O1)c1cc(-c3cc(C#N)cc(OC)c3)ccc1C[C@]21CC[C@@H](OC)CC1 (some centres unmarked) [Compound 85]",
    "value-kind": "IC50",
    "comparison-operator": "=",
    "test-result": 3.5
  },
  {
    "compound": "[2H]C1([2H])OC(N)=NC12c1cc(/C=N/OCCC)ccc1C[C@]21CC[C@@H](OC)CC1 (some centres unmarked) [Compound 53]",
    "value-kind": "IC50",
    "comparison-operator": "=",
    "test-result": 24.8
  },
  {
    "compound": "[2H]C1([2H])OC(N)=N[C@]12c1cc(-c3cccnc3)ccc1C[C@]21CC[C@@H](OC)[C@H](C)C1 [Compound 13]",
    "value-kind": "IC50",
    "comparison-operator": "=",
    "test-result": 1.7
  },
  {
    "compound": "[2H]C([2H])([2H])O[C@@H]1CC[C@]2(Cc3ccc(-c4cccnc4)cc3[C@]23N=C(N)OC3([2H])[2H])C[C@H]1C [Compound 80]",
    "value-kind": "IC50",
    "comparison-operator": "<",
    "test-result": 0.16
  }
]
